Target or system ASK1 (Homo sapiens (Human), UniProt Q99683); metric IC50; compiled from varied reports.

See these solved cases before continuing.
Measured IC50 of Cc1cc2c(cc1-c1cnn(C(C)C)c1)C(=O)N(c1cccc(-c3nncn3C(C)C)n1)CO2 : 4.5 nM

The molecule identified as CC(C)n1cnnc1-c1cccc(NC(=O)c2cc3sc(N(C)C4CC4)nc3cc2F)n1 registered its IC50 at 1 to 10 nM

Kindly note the recorded IC50 for CC(C)n1nnnc1-c1cccc(N2Cc3ccccc3C2=O)n1 , which is 10 to 100 nM

response.value for Cc1cnc(C(=O)Nc2cccc(-n3nnnc3C(C)C)n2)cc1-n1cnc(C(F)(F)F)c1 (field: IC50) = 10 to 100 nM

Further cases:
Entry CC(C)n1cnnc1-c1cccc(NC(=O)c2cc3c(cc2F)CCN(S(=O)(=O)C2CC2)C3)n1 ; IC50 = 1 to 10 nM

Item: CC(C)n1nnnc1-c1cccc(N2Cc3ccc(-c4cccnc4)cc3C2=O)n1 | IC50: 1 to 10 nM

Reported IC50 of C[C@H](CO)n1nnnc1-c1cccc(NC(=O)c2cc3c(cn2)CCN(Cc2ccccc2)C3)n1 : 1 to 10 nM

Data point: CCc1c[nH]c(C(=O)Nc2cccc(-c3nncn3C(C)C)n2)c1 ; IC50 = 8.3 nM

Recorded result, O=C1c2ccccc2CN1c1cccc(-c2nnc3n2CCC3)n1 , IC50: 200 to 1000 nM
